target: CYP2D6 (Homo sapiens); test: Inhibition of CYP2D6 using AMMC as substrate at 10 uM; format: ADME; conditions: probe AMMC
Sequence (P10635 whole entry): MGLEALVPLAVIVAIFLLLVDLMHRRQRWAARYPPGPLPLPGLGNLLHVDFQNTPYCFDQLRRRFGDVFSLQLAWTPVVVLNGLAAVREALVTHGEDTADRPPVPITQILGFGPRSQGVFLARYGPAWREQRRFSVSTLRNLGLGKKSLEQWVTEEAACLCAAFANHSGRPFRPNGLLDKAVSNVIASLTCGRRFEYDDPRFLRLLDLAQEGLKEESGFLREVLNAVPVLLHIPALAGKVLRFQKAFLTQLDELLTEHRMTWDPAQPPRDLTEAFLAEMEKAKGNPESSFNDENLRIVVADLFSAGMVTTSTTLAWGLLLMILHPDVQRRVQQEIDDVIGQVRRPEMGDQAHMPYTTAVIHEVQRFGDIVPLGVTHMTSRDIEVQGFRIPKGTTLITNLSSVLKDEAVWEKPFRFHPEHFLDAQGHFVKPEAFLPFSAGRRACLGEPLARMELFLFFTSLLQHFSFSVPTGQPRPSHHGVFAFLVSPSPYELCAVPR
measure-name: inhibition at 10 µM (%)

Query: inhibition at 10 µM; subject: C[C@@H](C(=O)Nc1nccs1)c1ccc(OS(=O)(=O)C(F)(F)F)cc1
26

[I] C[C@@H](C(=O)Nc1nncs1)c1ccc(OS(=O)(=O)C(F)(F)F)cc1
[II] C[C@@H](C(=O)Nc1ccccn1)c1ccc(OS(=O)(=O)C(F)(F)F)cc1
Please state the entry with greater inhibition at 10 µM among I and II . Answer by quoting the chosen item's label.
I
(I: 40%, II: 21%)

[I] C[C@@H](C(=O)Nc1nc(C(F)(F)F)co1)c1ccc(OS(=O)(=O)C(F)(F)F)cc1
[II] C[C@@H](C(=O)Nc1nc(C(F)(F)F)cs1)c1ccc(OS(=O)(=O)C(F)(F)F)cc1
Parameter check: reported inhibition at 10 µM is higher for which label, I or II ? Reply briefly: the label of your chosen item.
II
